Tested on: SF-268 CNS
Assay: NCI-60 one-dose screen, 48 h (100 = growth as untreated, 0 = no growth, -100 = all killed)
Conditions: 10 µM unless noted
Description: Cells are grown in 96 well plates and exposed to the test compound for 48 hours. Compounds are tested at a single concentration, which is 10^-5 M for most compounds. The reported endpoint is percent growth (GI% or GIPRCNT), where numbers from 0 - 100% represent growth inhibition, and numbers from -100% - 0 represent cell death. For example, a value of 40 represents 60% growth inhibition. A value of 0 means no net growth occurred over the course of the experiment. […]
Compounds without any hit were thinned out: in the full panel of roughly 83,000, 20% have a hit. Calls of active or inactive are those of the source. How the source made its calls: active means growth percent below 10; inactive means the rest.
Form field: growth (one value per entry).

COMPOUND	growth
COc1cc(NC(=O)c2cccc(-c3cc(=O)c4c(OC)c(OC)c(OC)cc4o3)c2)cc(OC)c1OC	67.1% (inactive)
NS(=O)(=O)c1cnccc1-n1ccc(=O)c(S(N)(=O)=O)c1	101% (inactive)
Nc1ccn(C2OC(F)(CO)C(O)C2F)c(=O)n1 (stereo not drawn)	47.1% (inactive)
